This collection of values is drawn from patent US20030236190A1.

Molecular target: T1, Insulin receptor prepared according to Bass et al., 1996: soluble human insulin receptor-immunoglobulin heavy … (human, UniProt P06213 28-956)
T1 construct: extracellular domain; Eu3+-labelled in TR-FRET; also called IR; sIR-Fc; not shown: immunoglobulin heavy chain constant domains that replace the transmembrane and i
Experiment: phage ELISA, vs IGF-1R
Positions of bridges follow the written chain, without caps; N, C: chain ends. No end group written: not given here.
reported property: IR/IGF-1R Comparison (ratio)
Respond with the bare value in ratio.

[
  {
    "binder": "LSSDGQFYRALNLLLQGSAGR [20E2B-2-B7-IGFR]",
    "IR/IGF-1R Comparison / ratio": 0.1
  },
  {
    "binder": "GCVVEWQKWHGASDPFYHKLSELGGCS (disulfide 2-26 (inferred)) [B6Hα-3-F10-IR]",
    "IR/IGF-1R Comparison / ratio": 0.2
  },
  {
    "binder": "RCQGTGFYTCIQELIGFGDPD (disulfide 2-10 (inferred)) [20E2B-4-E9-IGFR]",
    "IR/IGF-1R Comparison / ratio": 0.2
  }
]

Attention now shifts to the item below.
Ask: Give the reported value of IR/IGF-1R Comparison for this record: EAASLGSQDRNFYDWFVRQVV [A6S-2-D11-IR]
Reply: 0.4
